molecular target: recombinant human EGFR exon 19 deletion/C797S double mutant protein (Homo sapiens (Human), UniProt P00533, C797S/DEL746-750); experiment: Biological Activity Assay C: biochemical assay against EGFR exon 19 deletion/C797S protein (EGFR d19/CS)
Sequence (P00533 other isoform, or with tags, fused parts or gaps C797S/del 1-668/del 746-750 limits assumed): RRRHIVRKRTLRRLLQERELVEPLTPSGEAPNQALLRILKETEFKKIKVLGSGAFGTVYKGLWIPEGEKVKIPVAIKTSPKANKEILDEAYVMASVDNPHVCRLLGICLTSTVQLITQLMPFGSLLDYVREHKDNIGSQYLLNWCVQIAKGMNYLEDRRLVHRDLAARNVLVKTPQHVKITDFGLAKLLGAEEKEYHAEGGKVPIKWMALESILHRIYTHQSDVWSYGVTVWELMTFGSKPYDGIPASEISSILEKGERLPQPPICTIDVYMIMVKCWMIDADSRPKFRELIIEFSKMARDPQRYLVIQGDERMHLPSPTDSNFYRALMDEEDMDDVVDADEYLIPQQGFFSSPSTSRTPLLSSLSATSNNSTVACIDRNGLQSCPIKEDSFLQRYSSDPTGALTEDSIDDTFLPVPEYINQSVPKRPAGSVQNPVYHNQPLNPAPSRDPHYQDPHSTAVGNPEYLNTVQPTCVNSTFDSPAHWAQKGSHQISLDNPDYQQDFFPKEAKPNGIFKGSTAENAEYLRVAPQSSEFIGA
METRIC: pIC50
Lab note: report pIC50 as minus log10 of the concentration in molar units, number only.

Q: Which pIC50 value is on record for `CS(=O)(=O)N1CC(n2cc(-c3ncnc4oc(-c5ccccc5)cc34)c(-c3ccc(F)cc3)n2)C1` ?
Ans: 9.26

Q: Which pIC50 value is on record for `CC(C)(O)CCc1nc(-c2ccc(F)cc2)c(-c2ncnc3oc(-c4ccccc4)nc23)o1` ?
Ans: 7.99

Q: Which pIC50 value is on record for CC1(C)C[C@H](n2cc(-c3ncnc4oc(-c5ccccc5)cc34)c(-c3ccc(F)cc3)n2)CO1 (single isomer, unassigned) ?
Ans: 9.21

Q: Which pIC50 value is on record for CN1CC[C@@H](n2cc(-c3ncnc4oc(-c5ccccc5)cc34)c(-c3ccc(F)cc3)n2)C1=O (single isomer, unassigned) ?
Ans: 9.54

Q: Which pIC50 value is on record for `Fc1ccc(-c2nn(CCCC(F)F)cc2-c2ncnc3oc(-c4ccccc4)cc23)cc1` ?
Ans: 8.82

Q: Which pIC50 value is on record for `CC(C)(C)OC(=O)N1CC(C#Cc2cc3c(-c4cn(C5CS(=O)(=O)C5)nc4-c4ccc(F)cc4)ncnc3o2)C1` ?
Ans: 8.82

Q: Which pIC50 value is on record for `O=S1(=O)CC(n2cc(-c3ncnc4oc(C#CC5CNC5)cc34)c(-c3ccc(F)cc3)n2)C1` ?
Ans: 8.15

###

target: recombinant human EGFR L858R/C797S double mutant protein (Homo sapiens (Human), UniProt P00533, C797S/L858R); experiment: Biological Activity Assay B: biochemical assay against EGFR L858R/C797S protein (EGFR LR/CS)
Sequence (P00533 25-1210 C797S/L858R): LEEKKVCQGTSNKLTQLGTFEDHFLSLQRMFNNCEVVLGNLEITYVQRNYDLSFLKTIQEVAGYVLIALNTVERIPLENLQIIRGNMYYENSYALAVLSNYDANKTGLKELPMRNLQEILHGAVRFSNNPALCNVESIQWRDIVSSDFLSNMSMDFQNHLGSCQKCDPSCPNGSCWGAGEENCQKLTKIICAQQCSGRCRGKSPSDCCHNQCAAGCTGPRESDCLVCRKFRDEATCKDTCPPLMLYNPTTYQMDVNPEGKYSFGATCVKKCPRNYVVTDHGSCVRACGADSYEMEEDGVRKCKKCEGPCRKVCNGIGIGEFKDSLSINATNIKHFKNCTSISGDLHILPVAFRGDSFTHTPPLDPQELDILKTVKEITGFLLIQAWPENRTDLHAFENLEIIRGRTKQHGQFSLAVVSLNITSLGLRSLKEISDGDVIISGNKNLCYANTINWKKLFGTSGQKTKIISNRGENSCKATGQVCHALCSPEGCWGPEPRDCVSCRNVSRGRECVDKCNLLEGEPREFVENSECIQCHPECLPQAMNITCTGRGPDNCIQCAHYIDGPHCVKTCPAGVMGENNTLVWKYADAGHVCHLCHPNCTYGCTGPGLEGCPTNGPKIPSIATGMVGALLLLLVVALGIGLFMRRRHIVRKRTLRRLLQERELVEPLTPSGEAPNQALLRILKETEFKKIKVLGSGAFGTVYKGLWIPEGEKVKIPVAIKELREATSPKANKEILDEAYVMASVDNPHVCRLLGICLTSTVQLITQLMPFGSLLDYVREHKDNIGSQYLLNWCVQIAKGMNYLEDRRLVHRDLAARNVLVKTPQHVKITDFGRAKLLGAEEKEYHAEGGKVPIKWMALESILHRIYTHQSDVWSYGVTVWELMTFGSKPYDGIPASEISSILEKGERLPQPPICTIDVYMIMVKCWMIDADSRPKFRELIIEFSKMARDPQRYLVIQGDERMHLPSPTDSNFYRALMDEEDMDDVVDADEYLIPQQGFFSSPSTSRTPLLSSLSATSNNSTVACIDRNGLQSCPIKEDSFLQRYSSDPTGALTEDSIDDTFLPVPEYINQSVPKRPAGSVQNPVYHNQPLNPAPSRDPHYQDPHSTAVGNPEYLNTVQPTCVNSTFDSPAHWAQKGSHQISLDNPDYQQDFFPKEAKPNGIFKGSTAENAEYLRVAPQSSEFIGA
Kindly supply the reported IC50 values for the records listed here.
The figure you give is taken to be in nM; do not add the unit.

Q: Which IC50 value is on record for `OCCCn1cc(-c2ncnc3[nH]c(-c4ccccc4)cc23)c(-c2ccc(F)cc2)n1` ?
Ans: 0.099

Q: Which IC50 value is on record for `Fc1ccc(-c2nn(CCC3COC3)cc2-c2ncnc3oc(-c4ccccc4)cc23)cc1` ?
Ans: 0.779

Q: Which IC50 value is on record for `Fc1ccc(-c2nn(CCCC(F)F)cc2-c2ncnc3oc(-c4ccccc4)cc23)cc1` ?
Ans: 1.12

Q: Which IC50 value is on record for `OCCCc1nc(-c2ccc(F)cc2)n(-c2ccnc3[nH]c(-c4ccccc4)cc23)n1` ?
Ans: 3.15

Q: Which IC50 value is on record for `OCCCn1cc(-c2ncnc3oc(-c4ccccc4)nc23)c(-c2ccc(F)cc2)n1` ?
Ans: 1.2

Q: Which IC50 value is on record for `CN(C)C(=O)CCc1nc(-c2ccc(F)cc2)c(-c2ncnc3oc(-c4ccccc4)cc23)o1` ?
Ans: 1.87

Q: Which IC50 value is on record for `O=S1(=O)CC(n2nc(-c3ccc(F)cc3)c(-c3ncnc4oc(-c5ccccc5)cc34)n2)C1` ?
Ans: 1.67

Q: Which IC50 value is on record for `NS(=O)(=O)CCCn1cc(-c2ncnc3oc(-c4ccccc4)cc23)c(-c2ccc(F)cc2)n1` ?
Ans: 0.263

Q: Which IC50 value is on record for `OCCCCn1nc(-c2ccc(F)cc2)c(-c2ccnc3[nH]c(-c4ccccc4)cc23)n1` ?
Ans: 1.1

Q: Which IC50 value is on record for `CS(=O)(=O)n1cc(-c2ncnc3oc(-c4ccccc4)cc23)c(-c2ccc(F)cc2)n1` ?
Ans: 6.14

Q: Which IC50 value is on record for `CCC(=O)CCn1cc(-c2ncnc3oc(-c4ccccc4)nc23)c(-c2ccc(F)cc2)n1` ?
Ans: 4.92

Q: Which IC50 value is on record for `CN(C)S(=O)(=O)CCn1cc(-c2ncnc3oc(-c4ccccc4)cc23)c(-c2ccc(F)cc2)n1` ?
Ans: 0.635

Q: Which IC50 value is on record for `N#CCn1cc(-c2ncnc3oc(-c4ccccc4)nc23)c(-c2ccc(F)cc2)n1` ?
Ans: 13

Q: Which IC50 value is on record for `Fc1ccc(-c2nn(C(F)F)cc2-c2ncnc3oc(-c4ccccc4)cc23)cc1` ?
Ans: 9.83

Q: Which IC50 value is on record for `OCCn1nc(-c2ccc(F)cc2)c(-c2ncnc3[nH]c(-c4ccccc4)nc23)n1` ?
Ans: 8.65

Q: Which IC50 value is on record for `CC(C)(O)Cn1cc(-c2ncnc3oc(-c4ccccc4)cc23)c(-c2cccc(F)c2)n1` ?
Ans: 0.75

Q: Which IC50 value is on record for `CC(=O)N1CC=C(c2cc3c(-c4cn(C5CS(=O)(=O)C5)nc4-c4ccc(F)cc4)ncnc3o2)CC1` ?
Ans: 1.59

Q: Which IC50 value is on record for `O=S1(=O)CC(n2cc(-c3ncnc4oc(-c5ccccc5)cc34)c(-c3ccc(F)cc3)n2)C1` ?
Ans: 0.327

Q: Which IC50 value is on record for `O[C@H]1C[C@H](Cn2ncc(-c3ncnc4oc(-c5ccccc5)cc34)c2-c2ccc(F)cc2)C1` ?
Ans: 15.8

Q: Which IC50 value is on record for `NC(=O)CCn1cc(-c2ncnc3oc(-c4ccccc4)cc23)c(-c2ccc(F)cc2)n1` ?
Ans: 0.56

Q: Which IC50 value is on record for `CC(C)(O)CCn1cc(-c2ncnc3oc(-c4ccccc4)nc23)c(-c2ccc(F)cc2)n1` ?
Ans: 5.2

Q: Which IC50 value is on record for `OCC(F)(F)Cn1cc(-c2ncnc3oc(-c4ccccc4)cc23)c(-c2ccc(F)cc2)n1` ?
Ans: 0.48

Q: Which IC50 value is on record for CS(=O)(=O)N1CCC(n2cc(-c3ncnc4oc(-c5ccccc5)cc34)c(-c3ccc(F)cc3)n2)C1 (racemic) ?
Ans: 0.38

Q: Which IC50 value is on record for `NC(=O)Cn1cc(-c2ncnc3oc(-c4ccccc4)cc23)c(-c2ccc(F)cc2)n1` ?
Ans: 0.45

Q: Which IC50 value is on record for `CS(=O)(=O)CCn1nc(-c2ccc(F)cc2)c(-c2ncnc3oc(-c4ccccc4)cc23)n1` ?
Ans: 1.56

Q: Which IC50 value is on record for `OCCCn1cc(-c2ncnc3oc(-c4ccccc4)cc23)c(-c2ccc(F)cc2)n1` ?
Ans: 0.521

Q: Which IC50 value is on record for `CN1CCN(c2ccc(-c3cc4c(-c5cn(CCCO)nc5-c5ccc(F)cc5)ncnc4[nH]3)cc2)CC1` ?
Ans: 0.242

Q: Which IC50 value is on record for O=S1(=O)CC[C@H](n2cc(-c3ncnc4oc(-c5ccccc5)cc34)c(-c3ccc(F)cc3)n2)C1 (single isomer, unassigned) ?
Ans: 0.77

Q: Which IC50 value is on record for `CN1CCN(c2ccc(-c3nc4c(-c5cn(CCCO)nc5-c5ccc(F)cc5)ncnc4[nH]3)cc2)CC1` ?
Ans: 0.27

Q: Which IC50 value is on record for O=S1(=O)CCC[C@@H](n2cc(-c3ncnc4oc(-c5ccccc5)cc34)c(-c3ccc(F)cc3)n2)C1 (single isomer, unassigned) ?
Ans: 5.7

Q: Which IC50 value is on record for `COC1(Cn2cc(-c3ncnc4oc(-c5ccccc5)cc34)c(-c3ccc(F)cc3)n2)COC1` ?
Ans: 1.01
